# TESTED TARGET: PD-L1 His protein / PD-1 Fc protein (Homo sapiens, UniProt Q9NZQ7)
# Sequence (Q9NZQ7 19-238 limits assumed): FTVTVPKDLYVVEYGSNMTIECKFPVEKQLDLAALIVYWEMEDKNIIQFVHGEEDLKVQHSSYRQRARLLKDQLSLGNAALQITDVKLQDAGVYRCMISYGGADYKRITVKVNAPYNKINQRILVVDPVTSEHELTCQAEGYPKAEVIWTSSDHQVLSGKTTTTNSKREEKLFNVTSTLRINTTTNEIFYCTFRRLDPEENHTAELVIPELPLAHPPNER
# TEST NAME: HTRF Assay (PD-1/PD-L1 interaction)
# EXPERIMENTAL SETUP: PD-L1 His 6 nM, PD-1 Fc 6 nM
MEASURED ATTRIBUTE: IC50 (nM)

MOLECULE: Cc1c(COc2cc(OCc3cncc(C#N)c3)c(CN3CC[C@H](C(=O)O)C3)cc2Cl)cccc1-c1cccc(-c2ccc3c(c2)C(=O)N(C)CC(=O)N3CCN2CC[C@H](C(=O)O)C2)c1C [Example 30]
RESULT UNIT: nM
OBSERVED: 0.3

MOLECULE: COc1cc(-c2cccc(-c3cccc(-c4ccn5c(=O)c(CN(C)CCO)cnc5c4)c3Cl)c2Cl)cnc1CN(C)CCO [Example 362]
RESULT UNIT: nM
OBSERVED: 36

MOLECULE: COc1nc(-c2cccc(-c3cccc(-c4ccn5c(=O)c(CNC[C@@H](O)CC(=O)O)cnc5c4)c3Cl)c2Cl)ccc1CNC[C@@H]1CCC(=O)N1 [Example 126]
RESULT UNIT: nM
OBSERVED: 0.4

MOLECULE: O=C1CC[C@@H](CNCc2cnc3cc(-c4cccc(-c5cccc(-c6cnc7c(CNC[C@@H]8CCC(=O)N8)cnn7c6)c5Cl)c4Cl)ccn3c2=O)N1 [Example 381]
RESULT UNIT: nM
OBSERVED: 5.9

MOLECULE: COc1nc(-c2cccc(-c3cccc(-c4ccn5c(=O)c(CN6CC(C(=O)O)C6)cnc5c4)c3Cl)c2Cl)cnc1CN1CC(CO)C1 [Example 93]
RESULT UNIT: nM
OBSERVED: 0.3

MOLECULE: COc1nc(-c2cccc(-c3cccc(-c4ccn5c(=O)c(CNC[C@@H]6CCC(=O)N6)cnc5c4)c3Cl)c2Cl)ccc1CN[C@H]1CCOC[C@@H]1O [Example 174]
RESULT UNIT: nM
OBSERVED: 0.8
